- System: HT29 colon
- Test description: NCI tumour cell line growth inhibition, 48 h
Measured property: TGI

-- ask # get_value(readout= TGI, system= HT29 colon) for O=C(O)C(C(F)(F)F)C(F)(F)F (tested in a mixture with another compound)
-- reply > 100 µM

-- ask # get_value(readout= TGI, system= HT29 colon) for `CC(=O)Nc1ccc(S(=O)(=O)N/N=C(\C)CN2C(=O)c3ccccc3C2=O)cc1`
-- reply > 100 µM

-- ask # get_value(readout= TGI, system= HT29 colon) for `NC(=S)NN=C1Cc2ccccc2C1`
-- reply > 100 µM

====

- Test system: HS 578T breast
- Test description: NCI tumour cell line growth inhibition, 48 h; in the data active = GI50 below about 0.43 µM; inactive = the rest
Form entry, call: pick from active, inactive

-- ask Recorded call for COc1ccc(/C=N/C2=NNC(C)(c3ccccc3O)N2C(Cc2c[nH]c3ccccc23)C(=O)O)cc1 (configuration not stated) ?
-- reply inactive

-- ask Recorded call for `Fc1cccc(-c2nc(-c3c[nH]c4ncccc34)cs2)c1` ?
-- reply inactive

-- ask Recorded call for `CCSc1nnc(-c2ccc3ccccc3c2O)n1-c1ccccc1` ?
-- reply inactive

-- ask Recorded call for `Nc1ncc(-c2ccc3ncnc(N4CCc5cc(F)c(Cl)cc54)c3c2)cc1C(F)(F)F` ?
-- reply active

-- ask Recorded call for `COc1ccc2c(ccc3oc([N+](=O)[O-])cc32)c1` ?
-- reply active

-- ask Recorded call for `NCCNc1nc2ccc(F)cc2c2c(=O)c3cc(F)ccc3sc12` ?
-- reply inactive

-- ask Recorded call for `CC(=O)OCCC/C(=C/c1cc2ccccc2c2ccccc12)[N+](=O)[O-]` ?
-- reply inactive

====

- System: OVCAR-8 ovarian
- Test description: NCI tumour cell line growth inhibition, 48 h
Measured property: TGI

-- ask Any idea what TGI was measured for Cc1ccc([N+](=O)[O-])cc1S(=O)(=O)Nc1ccc(C2=NN(C(=O)c3ccccc3)C(c3ccccc3O)C2)cc1 (centres undefined) ?
-- reply 57.7 µM

-- ask Any idea what TGI was measured for `COc1ccc(-n2nnc3c(C#N)c(C)c(-c4ccccc4)n3c2=O)cc1` ?
-- reply > 70.8 µM

-- ask Any idea what TGI was measured for `CC(=S)NC=C(C(N)=O)C(N)=O` ?
-- reply > 100 µM

-- ask Any idea what TGI was measured for `C#C[C@]1(O)[C@@H](CO)O[C@@H](n2ccc(=O)[nH]c2=O)[C@@H]1O` ?
-- reply > 100 µM

-- ask Any idea what TGI was measured for COc1ccc(C2S/C(=C\c3ccc([N+](=O)[O-])cc3)C(=O)N2NC(=O)Cc2ccccc2)cc1 (centres undefined) ?
-- reply > 100 µM

-- ask Any idea what TGI was measured for NC(=S)N/N=C1/C(=O)N(c2ccccc2)C(=O)C1C(=O)Nc1ccccc1 (centres undefined) ?
-- reply > 100 µM

-- ask Any idea what TGI was measured for `CC1=CC[C@@H]2C(=O)C=CC=C[C@H]12.[C-]#[O+].[C-]#[O+].[C-]#[O+].[Fe]` ?
-- reply > 100 µM

-- ask Any idea what TGI was measured for `C=CC(=O)N1CCC(CNc2ncnc(N)c2-c2ccc(Oc3ccccc3)cc2)CC1` ?
-- reply > 100 µM

-- ask Any idea what TGI was measured for `O=C1CNc2cc(N3CCCCC3)ccc2N1` ?
-- reply > 100 µM

-- ask Any idea what TGI was measured for COc1ccc2c3c1OC1C4(CCC5C(C2)N(CC2CC2)CCC351)OCCO4 (centres undefined) ?
-- reply > 100 µM

-- ask Any idea what TGI was measured for `COc1cc(CO)cc2c1[nH]c1ccccc12` ?
-- reply > 25 µM

-- ask Any idea what TGI was measured for `CCN(CC)CCOc1ccccc1-n1c(C)ccc1-c1ccccc1` ?
-- reply 33.4 µM

-- ask Any idea what TGI was measured for `Nc1nc(Cl)cc(NCC2(CO)CC=CC2)n1` ?
-- reply > 100 µM

-- ask Any idea what TGI was measured for `CCOc1cc2cnc3c4cc(OC)c(OC)cc4ccc3c2cc1OC` ?
-- reply > 100 µM

-- ask Any idea what TGI was measured for `COc1ccc(-n2nc(C(=O)NCC(=O)Nc3nc4cc(OC)ccc4s3)c3ccccc3c2=O)cc1` ?
-- reply 2 µM

-- ask Any idea what TGI was measured for `COc1ccc(C(=O)c2cc(C)c(OC)c(C)c2)c(OC)c1OC(=O)C(Cl)Cl` ?
-- reply > 100 µM

-- ask Any idea what TGI was measured for `C=C(C)[C@@H]1CC[C@]2(COC(=O)c3ccccc3C(=O)O)CC[C@]3(C)[C@H](CC[C@@H]4[C@@]5(C)CC[C@H](OC(=O)c6ccccc6C(=O)O)C(C)(C)[C@@H]5CC[C@]43C)[C@@H]12` ?
-- reply > 100 µM

-- ask Any idea what TGI was measured for `CC(C)(C)CC(C)(C)c1cc2c(O)c(c1)Cc1cc(C(C)(C)CC(C)(C)C)cc(c1O)Cc1cc(C(C)(C)CC(C)(C)C)cc(c1O)Cc1cc(C(C)(C)CC(C)(C)C)cc(c1O)Cc1cc(C(C)(C)CC(C)(C)C)cc(c1O)Cc1cc(C(C)(C)CC(C)(C)C)cc(c1O)Cc1cc(C(C)(C)CC(C)(C)C)cc(c1O)Cc1cc(C(C)(C)CC(C)(C)C)cc(c1O)C2` ?
-- reply > 100 µM

-- ask Any idea what TGI was measured for `CCOC(=O)C1=C(Nc2cccc3ccccc23)OCC1=O` ?
-- reply > 100 µM

====

- System: MALME-3M melanoma
- Test description: NCI tumour cell line growth inhibition, 48 h
I'd be grateful if you could share measured TGI for these entries.

-- ask Any idea what TGI was measured for `C#CCOCn1cnc2c(N)ncnc21` ?
-- reply > 100 µM

-- ask Any idea what TGI was measured for `CC1=C(C(=O)NCc2ccccc2)C(c2ccc(N(C)C)cc2)C(C(=O)NCc2ccccc2)=C(C)N1` ?
-- reply > 100 µM

-- ask Any idea what TGI was measured for `CN(C)c1cccc2c(S(=O)(=O)NCCCNCCN)cccc12` ?
-- reply > 100 µM

-- ask Any idea what TGI was measured for O=CCC(O)C(O)C(O)CO (configuration not stated) ?
-- reply > 100 µM

-- ask Any idea what TGI was measured for `Clc1ccc(C2=Cc3nc2c(-c2ccccc2)c2ccc([nH]2)c(-c2ccccc2)c2nc(c(-c4ccccc4)c4ccc([nH]4)c3-c3ccccc3)C=C2)cc1` ?
-- reply > 62.5 µM

-- ask Any idea what TGI was measured for `CCCCCC/C=C\CCCCCCCCCc1cccc(OC)c1O` ?
-- reply > 100 µM

-- ask Any idea what TGI was measured for `CN(C)CCSC(=Nc1ccccc1)n1cccc1` ?
-- reply > 100 µM

-- ask Any idea what TGI was measured for CC/C(=N/O)C(C)C(=O)CCC(=O)Nc1ccc(Cl)cc1 (configuration not stated) ?
-- reply > 100 µM

-- ask Any idea what TGI was measured for `CCN1C(=O)N[C@H]2[C@@H]3NC(=O)c4ccc(Cl)n4[C@@H]3C[C@]21O` ?
-- reply 4.66 µM

-- ask Any idea what TGI was measured for `O=C(Cc1ccccc1)Nc1nc2ccc(Cl)cc2c2nc(-c3ccco3)nn12` ?
-- reply > 100 µM

-- ask Any idea what TGI was measured for `CN(CCCN1CCCC1)CCCN(C)C(=O)Cc1ccc(Cl)c(Cl)c1` ?
-- reply 34.6 µM

-- ask Any idea what TGI was measured for `COc1ccc(C(=O)c2cc(C)c(OC)c(C)c2)c(OC)c1OC(=O)C(Cl)Cl` ?
-- reply > 100 µM

-- ask Any idea what TGI was measured for OC1CCSc2ccccc21 (configuration not stated) ?
-- reply > 100 µM

-- ask Any idea what TGI was measured for `Nc1nc(N)c2cc(S(=O)(=O)c3ccccc3)ccc2n1` ?
-- reply > 100 µM

-- ask Any idea what TGI was measured for `CS(=O)(=O)Nc1ccc(NCc2cnc3ccc4[nH]cccc4c23)cc1` ?
-- reply 46.6 µM

-- ask Any idea what TGI was measured for `CCC1=NC(N/N=C/c2ccco2)=N/C1=C\c1ccco1` ?
-- reply > 100 µM

-- ask Any idea what TGI was measured for CC(=O)NC(CCCCN(Cc1ccccc1)C(=O)N(C)N=O)C(=O)NCc1ccccc1 (configuration not stated) ?
-- reply > 100 µM

====

- System: SF-268 CNS
- Test description: NCI tumour cell line growth inhibition, 48 h
I'd be grateful if you could share measured TGI for these entries.

-- ask # get_value(readout= TGI, system= SF-268 CNS) for `N#Cc1cc2c(=S)[nH]c(=S)[nH]c2nc1SCc1ccccc1`
-- reply > 100 µM

-- ask # get_value(readout= TGI, system= SF-268 CNS) for O=C(O)C(C(F)(F)F)C(F)(F)F (tested in a mixture with another compound)
-- reply > 100 µM

-- ask # get_value(readout= TGI, system= SF-268 CNS) for `CC(C)(C)COS(=O)OCC(C)(C)C`
-- reply > 100 µM

Reference source for all entries: PubChem BioAssay (NCI)
